Source listed as paper PMC4405178.

- STUDY_SYSTEM: T1, C-terminally truncated wild-type Ste2p (Saccharomyces cerevisiae, UniProt D6VTK4 1-303)
- T1 sequence (looked up): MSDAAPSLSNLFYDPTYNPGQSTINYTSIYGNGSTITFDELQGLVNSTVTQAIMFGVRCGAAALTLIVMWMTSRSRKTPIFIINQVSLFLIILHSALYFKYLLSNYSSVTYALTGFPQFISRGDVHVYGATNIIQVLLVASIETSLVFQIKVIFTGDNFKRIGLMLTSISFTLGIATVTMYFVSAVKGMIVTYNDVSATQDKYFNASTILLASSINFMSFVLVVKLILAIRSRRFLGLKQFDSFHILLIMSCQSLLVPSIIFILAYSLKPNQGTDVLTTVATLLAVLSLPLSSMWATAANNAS
- ASSAY_EXPLANATION: flow cytometry on cells
MEASURED_QUANTITY: Kd (nM)
Give bare numbers, in nM.

Problem: Write down Kd measured for item WHWLQLKPGQPMY (NBD (7-nitrobenz-2-oxa-1,3-diazol-4-yl) conjugated to the lysine at position 7; norleucine at position 12 in place of methionine) [[K^7(NBD),Nle^12] α-factor]
Solution: 19
